From: the supplement of paper PMC13380429

# System: Calu-3
# TEST_NAME: cell viability relative to DMSO; higher = less toxic
# MEASUREMENT_SETUP: 72 h; 10 nM
This listing pairs molecules with measured cell viability.
// return numeric value only (unit: %, not printed)

Any idea what its cell viability is? The molecule is Nc1nc(OCc2ccccc2)c2nc[nH]c2n1 [O6-benzylguanine]
89.5

Next up: O=C(NC(=O)c1c(F)cccc1F)Nc1cc(Cl)c(OC(F)(F)C(F)C(F)(F)F)cc1Cl (stereo not drawn) [lufenuron]
98.9

Next up: CCN(CC)CCNC(=O)c1cc(Br)c(N)cc1OC [bromopride]
99

Next up: CC(C)(C)c1ccc(C(O)CCCN2CCC(C(O)(c3ccccc3)c3ccccc3)CC2)cc1 (stereo not drawn) [terfenadine]
115

Next up: OCCN1CCN(CCCN2c3ccccc3Sc3ccc(Cl)cc32)CC1 [perphenazine]
93.5

Next up: CC(C)c1cc2c(cc1S(=O)(=O)O)[C@@]1(C)CCC[C@@](C)(C(=O)O)[C@@H]1CC2 [ecabet]
107

Next up: CCc1cc2c(c(CC)n1)CCC(=O)N2Cc1ccc(-c2ccccc2-c2nnn[nH]2)cc1 [ZD-7155]
99.8

Next up: COc1ccc2cc1Oc1ccc(cc1)C[C@H]1c3c(cc4c(c3Oc3cc5c(cc3OC)CCN(C)[C@@H]5C2)OCO4)CCN1C [cepharanthine]
107
